Test summary: Selectivity ratio of pKi for CB1 receptor in rat brain to pKi for human cloned CB2 receptor
Format: tissue-based
Listed here: items and their measured Ratio pKi.
Lab note: jot the number down without any unit.

Known results for molecules:
CCCCCn1cc(C(=O)Cc2ccc(F)cc2)c2ccccc21 :: 0.99
CCCn1c(C)c(C(=O)c2ccc(OC)c3ccccc23)c2ccccc21 :: 0.901

// returns reported Ratio pKi for input CCCn1c(C)c(C(=O)c2ccc(CC)c3ccccc23)c2ccccc21 0.903

CCCCCn1cc(C(=O)c2ccc(OCC)c3ccccc23)c2ccccc21 , same question. 1.04

Field entry: CCCCCn1cc(C(=O)Cc2ccccc2F)c2ccccc21 1.03

Try this molecule too: CCCCCn1cc(C(=O)Cc2ccc(OC)cc2)c2ccccc21 0.94
